# assaySystem: Z. mobilis PDC (Zymomonas mobilis subsp. mobilis, UniProt P06672)
# Sequence (P06672 1-568): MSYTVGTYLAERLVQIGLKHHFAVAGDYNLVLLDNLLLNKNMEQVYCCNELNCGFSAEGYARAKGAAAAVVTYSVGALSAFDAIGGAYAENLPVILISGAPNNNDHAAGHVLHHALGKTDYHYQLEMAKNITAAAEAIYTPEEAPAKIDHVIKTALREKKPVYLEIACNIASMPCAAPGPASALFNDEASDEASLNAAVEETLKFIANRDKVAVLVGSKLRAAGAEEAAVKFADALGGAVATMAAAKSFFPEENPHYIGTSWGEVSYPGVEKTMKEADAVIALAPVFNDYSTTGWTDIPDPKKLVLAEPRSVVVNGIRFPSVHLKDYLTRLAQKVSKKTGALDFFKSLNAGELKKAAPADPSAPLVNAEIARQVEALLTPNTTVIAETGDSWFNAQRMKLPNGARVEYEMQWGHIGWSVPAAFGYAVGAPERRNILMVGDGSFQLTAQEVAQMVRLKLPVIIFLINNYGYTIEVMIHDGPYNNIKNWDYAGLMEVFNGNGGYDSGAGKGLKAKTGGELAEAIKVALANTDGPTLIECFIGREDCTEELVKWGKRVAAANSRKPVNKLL
Recorded IC50 for the following compounds
readoutKind: IC50 (µM)

                                   compound  readoutkind  endpointunit  measuredvalue
0  Cc1ncc(Cn2cc(CCCC(=O)NO)nn2)c(N)n1 [Compound 24b]         IC50            µM             20
1  Cc1ncc(Cn2cc(CCCCC(=O)NO)nn2)c(N)n1 [Compound 24c]         IC50            µM             25
